Assignment: determine reported log10 of EC50 for the given compounds.
Test system: Human immunodeficiency virus 2
ASSAY_NAME: Antiretroviral activity against HIV-2 infected HUT-78 cells.
CONDITION_SET: Human immunodeficiency virus 2, HuT78; read-out: Log 1/EC50 (converted)
Log scale reminder: EC50 in nM, then log10 taken.

Recorded log10 of EC50 for Fc1c(F)c(CN2CCCNCCNCCCNCC2)c(F)c(F)c1CN1CCCNCCNCCCNCC1 , please?
0.90

Input O=[N+]([O-])c1cc(CN2CCCNCCNCCCNCC2)ccc1CN1CCCNCCNCCCNCC1
1.86

Further, for c1cc(CN2CCCNCCCNCCNCCC2)cc(CN2CCCNCCCNCCNCCC2)c1 ?
2.81

Next record, please: c1ncc(CN2CCCNCCNCCCNCC2)cc1CN1CCCNCCNCCCNCC1
1.85

Same again, this time with COc1cc(CN2CCCNCCNCCCNCC2)c(OC)cc1CN1CCCNCCNCCCNCC1
0.90

Please give the result for c1cc(CN2CCCNCCCNCCNCCC2)cc(CN2CCCNCCNCCCNCC2)c1 too.
2.88

Cool, now Cc1cc(CN2CCCNCCNCCCNCC2)c(C)cc1CN1CCCNCCNCCCNCC1
0.11

Same read-out for c1cc(CN2CCNCCCNCCNCC2)ccc1CN1CCNCCCNCCNCC1 ?
2.37

Query c1ccc2c(CN3CCCNCCNCCCNCC3)cc(CN3CCCNCCNCCCNCC3)cc2c1 next
1.90

And c1cc(CN2CCCNCCNCCCNCC2)ccc1CN1CCCNCCNCCCNCC1 ?
0.78

Repeat with c1cc(CN2CCCNCCNCCCNCC2)ccc1CN1CCCNCCNCCNCCC1
1.75

Would you kindly repeat that for c1ccc(-c2cc(CN3CCCNCCNCCCNCC3)cc(CN3CCCNCCNCCCNCC3)c2)cc1 ?
1.39

Follow-up item: NCCCNCCNCCCNCc1ccc(CN2CCCNCCNCCCNCC2)cc1
2.85

Next up: Brc1c(CN2CCCNCCNCCCNCC2)cccc1CN1CCCNCCNCCCNCC1
2.39

Repeat for the following compound: c1ccc2c(CN3CCCNCCNCCCNCC3)ccc(CN3CCCNCCNCCCNCC3)c2c1
1.59

Next record, please: Fc1c(CN2CCCNCCNCCCNCC2)cccc1CN1CCCNCCNCCCNCC1
1.87

Next record, please: c1cc(CN2CCNCCCNCCNCC2)cc(CN2CCNCCCNCCNCC2)c1
1.79

Consider next the compound O=[N+]([O-])c1cc(CN2CCCNCCNCCCNCC2)cc(CN2CCCNCCNCCCNCC2)c1 in the same way.
1.75

Now consider Clc1c(Cl)c(CN2CCCNCCNCCCNCC2)c(Cl)c(CN2CCCNCCNCCCNCC2)c1Cl .
0.40

Also c1cc(CN2CCCNCCNCCCNCC2)nc(CN2CCCNCCNCCCNCC2)c1 , if possible.
1.82

Next compound up: Clc1cc(CN2CCCNCCNCCCNCC2)c(Cl)cc1CN1CCCNCCNCCCNCC1
0.39
